biological target: hNAMPT protein (Homo sapiens (Human), UniProt P43490); assay: NAMPT enzyme assay (TR-FRET/HTRF, BodiPY ligand, anti 6His-Tb); assay type: binding; conditions: compound concentration 1 μM; read-out: Percent Inhibition
Sequence (P43490 whole entry): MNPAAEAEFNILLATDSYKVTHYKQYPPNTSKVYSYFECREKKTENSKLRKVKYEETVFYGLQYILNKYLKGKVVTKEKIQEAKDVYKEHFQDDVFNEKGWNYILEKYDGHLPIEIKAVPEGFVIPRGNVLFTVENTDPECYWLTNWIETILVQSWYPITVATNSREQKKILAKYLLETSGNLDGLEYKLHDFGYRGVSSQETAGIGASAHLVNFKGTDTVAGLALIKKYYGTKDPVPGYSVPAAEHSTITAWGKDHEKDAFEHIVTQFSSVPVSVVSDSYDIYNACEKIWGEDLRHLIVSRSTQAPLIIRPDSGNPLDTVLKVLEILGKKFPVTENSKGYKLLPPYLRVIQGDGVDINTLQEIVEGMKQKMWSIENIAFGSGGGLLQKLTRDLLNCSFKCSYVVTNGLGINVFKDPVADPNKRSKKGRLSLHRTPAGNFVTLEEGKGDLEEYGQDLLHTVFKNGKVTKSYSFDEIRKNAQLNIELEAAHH
Just so you know, the groups by inhibition at 1 µM go like this: bin 1 = under 60%, bin 2 = from 60% up to 90%, bin 3 = 90% and over

Challenge: Band for O=C(c1ccc2nc(-c3ccc(F)cc3)c(-c3ccc(F)cc3)nc2c1)N1CCc2cn[nH]c2C1 ?
Response given: bin 1

Challenge: Band for CS(=O)(=O)N1CCN(c2nc3ccc(C(=O)NCCCn4ccnc4)cc3nc2-c2ccccc2)CC1 ?
Response given: bin 2

Challenge: Band for CC(=O)Nc1cccc(-c2nc3cc(C(=O)NCCCn4ccnc4)ccc3nc2-c2ccccc2)c1 ?
Response given: bin 1

Challenge: Band for O=C(NCCCc1ncc[nH]1)c1ccc2nc(OCc3ccoc3)c(-c3ccc(F)cc3)nc2c1 ?
Response given: bin 3

Challenge: Band for O=C(NCCCc1ncc[nH]1)c1ccc2nc(OCCO)c(-c3ccc(F)cc3)nc2c1 ?
Response given: bin 3

Challenge: Band for Cn1cc2c(n1)CN(c1nc3cc(C(=O)NCCCn4ccnc4)ccc3nc1-c1ccccc1)CC2 ?
Response given: bin 1

Challenge: Band for Cc1ccc(-c2nc3ccc(C(=O)NCCCn4ccnc4)cc3nc2-c2ccc(C)cc2)cc1 ?
Response given: bin 1

Challenge: Band for Cn1cccc1-c1nc2ccc(C(=O)NCCCn3ccnc3)cc2nc1-c1ccccc1 ?
Response given: bin 1

Challenge: Band for COc1cc(OC)cc(-c2nc3cc(C(=O)NCCCn4ccnc4)ccc3nc2-c2ccccc2)c1 ?
Response given: bin 2

Challenge: Band for CC(C)(C)OC(=O)NCC1(O)CCN(C2CCN(c3nc4ccc(C(=O)NCCCn5ccnc5)cc4nc3-c3ccccc3)CC2)CC1 ?
Response given: bin 3

Challenge: Band for O=C(NCCCn1ccnc1)c1ccc2nc(-c3ccccc3)c(N3CCC3)nc2c1 ?
Response given: bin 1

Challenge: Band for Cn1cc2c(n1)CN(C(=O)c1ccc3nc(-c4ccc(F)cc4)c(-c4ccc(F)cc4)nc3c1)CC2 ?
Response given: bin 1

Challenge: Band for Cc1nccn1CCCNC(=O)c1ccc2nc(-c3ccc(F)cc3)c(-c3ccc(F)cc3)nc2c1 ?
Response given: bin 3

Challenge: Band for Cn1cccc1-c1nc2cc(C(=O)NCCCn3ccnc3)ccc2nc1-c1ccccc1 ?
Response given: bin 1

Challenge: Band for O=C(NCCCc1c[nH]cn1)c1ccc2nc(N3CCCCC3)c(-c3ccc(F)cc3)nc2c1 ?
Response given: bin 3

Challenge: Band for COc1ccccc1-c1nc2ccc(C(=O)NCCCn3ccnc3)cc2nc1-c1ccccc1 ?
Response given: bin 2

Challenge: Band for O=C(NCc1ccc2nccn2c1)c1ccc2nc(N3CCC(N4CCOCC4)CC3)c(-c3ccc(F)cc3)nc2c1 ?
Response given: bin 3

Challenge: Band for O=C(NCCCc1ncc[nH]1)c1ccc2nc(-c3ccc(F)cc3)c(-c3cccc(Cl)c3F)nc2c1 ?
Response given: bin 3

Challenge: Band for O=C(NCCCn1ccnc1)c1ccc2nc(N3CCCC(O)C3)c(-c3ccccc3)nc2c1 (stereo not drawn) ?
Response given: bin 2

Challenge: Band for COc1cccc(-c2nc3cc(C(=O)NCCc4cccnc4)ccc3nc2N2CCCCC2)c1 ?
Response given: bin 3

Challenge: Band for NC(=O)c1cccc(-c2nc3cc(C(=O)NCCCn4ccnc4)ccc3nc2-c2ccccc2)c1 ?
Response given: bin 2

Challenge: Band for O=C(NCCCn1ccnc1)c1ccc2nc(-c3ccccc3)c(NCc3ccccc3)nc2c1 ?
Response given: bin 1

Challenge: Band for NC(=O)c1cccc(-c2nc3ccc(C(=O)NCCCn4ccnc4)cc3nc2-c2ccccc2)c1 ?
Response given: bin 2

Challenge: Band for O=C(NCc1cn2cccnc2n1)c1ccc2nc(N3CCC(N4CCOCC4)CC3)c(-c3ccc(F)cc3)nc2c1 ?
Response given: bin 3

Challenge: Band for C[C@@H]1CN(c2nc3cc(C(=O)NCCCn4ccnc4)ccc3nc2-c2ccccc2)C[C@H](C)O1 ?
Response given: bin 1

Challenge: Band for N#Cc1ccc(-c2nc3ccc(C(=O)NCCCn4ccnc4)cc3nc2-c2ccccc2)cc1 ?
Response given: bin 2

Challenge: Band for O=C(NCCCc1ncc[nH]1)c1ccc2nc(-c3ccc(F)cc3)c(-c3cccc(C(F)(F)F)c3)nc2c1 ?
Response given: bin 2

Origin of the recorded values: patent US10144742B2
